# credit: patent US20080050810A1

SYSTEM UNDER TEST: anti-CC49 variable region antibodies in the serum of patient one
PROTOCOL NOTES: HPLC, 125I-HuCC49 + serum + 5 Tg competitor; fewer complexes = competitor bound
QUANTITY KIND: percent of complexes (%)

- BINDER: "HuCC49 CDR variant H-2 (antibody, V domains shown) VH: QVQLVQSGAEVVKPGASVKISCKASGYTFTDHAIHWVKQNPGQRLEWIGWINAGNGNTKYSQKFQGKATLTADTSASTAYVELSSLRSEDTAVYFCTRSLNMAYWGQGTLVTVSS VL: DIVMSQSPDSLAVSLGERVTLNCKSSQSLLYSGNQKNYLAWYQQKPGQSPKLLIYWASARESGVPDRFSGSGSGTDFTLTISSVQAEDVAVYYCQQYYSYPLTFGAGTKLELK"
  READING: 32.7
- BINDER: "HuCC49 CDR variant H-1 (antibody, V domains shown) VH: QVQLVQSGAEVVKPGASVKISCKASGYTFTSYAMHWVKQNPGQRLEWIGYFSPGNDDFKYNERFKGKATLTADTSASTAYVELSSLRSEDTAVYFCTRSLNMAYWGQGTLVTVSS VL: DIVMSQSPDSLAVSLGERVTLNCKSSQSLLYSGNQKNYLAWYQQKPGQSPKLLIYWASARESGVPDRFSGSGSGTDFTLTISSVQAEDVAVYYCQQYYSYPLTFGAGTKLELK"
  READING: 10.2
- BINDER: "humanized monoclonal antibody HuCC49 (parental HuCC49) (antibody, V domains shown) VH: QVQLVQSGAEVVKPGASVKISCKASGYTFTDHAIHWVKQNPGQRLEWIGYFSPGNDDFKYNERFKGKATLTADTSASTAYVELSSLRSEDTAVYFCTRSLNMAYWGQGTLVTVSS VL: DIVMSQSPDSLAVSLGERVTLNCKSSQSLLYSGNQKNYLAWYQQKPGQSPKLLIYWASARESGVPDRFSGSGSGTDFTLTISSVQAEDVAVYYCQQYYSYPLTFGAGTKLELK"
  READING: 0
